PROTOCOL SUMMARY: AUC in cynomolgus monkey at 10 mg/kg, po after 24 hrs by LC/MS/MS method
Type: ADME, organism-based, Macaca fascicularis
Set-up: dose 10 mg/kg, time < 24 hr, route oral
RECORDED CONDITIONS: in vivo
VALUE KIND: AUC at 24 h (µM·h)
Unit µM·h implied. Number only.

[Q] Given the compound CCCNC(=O)c1cn2ncnc(Nc3cc(C(=O)NC4CC4)ccc3C)c2c1C , what is its reported AUC at 24 h?
[A] 7.6

====

PROTOCOL SUMMARY: Stability in pH 1.1 solution assessed as half-life at 37 degC
Assay type: physicochemical
VALUE KIND: half-life
Remember to quote the unit after the number.

[Q] Given the compound CCCN(C(=O)OCOC(=O)Cc1ccc(OP(=O)(O)O)cc1)C(=O)c1cn2ncnc(Nc3cc(C(=O)NC4CC4)ccc3C)c2c1C , what is its reported half-life?
[A] 21 h

====

PROTOCOL SUMMARY: Cmax in Sprague-Dawley rat at 100 mg/kg, po after 24 hrs by LC/MS/MS method
Assay type: ADME, organism-based
Set-up: dose 100 mg/kg, route oral
RECORDED CONDITIONS: in vivo
VALUE KIND: Cmax (nM)
Unit nM implied. Number only.

[Q] Given the molecule CCCNC(=O)c1cn2ncnc(Nc3cc(C(=O)NC4CC4)ccc3C)c2c1C , what is its reported Cmax?
[A] 3000

====

PROTOCOL SUMMARY: Cmax in Sprague-Dawley rat at 10 mg/kg, po after 24 hrs by LC/MS/MS method
Assay type: ADME, organism-based
Set-up: dose 10 mg/kg, route oral
RECORDED CONDITIONS: in vivo
VALUE KIND: Cmax (µM)
Unit µM implied. Number only.

[Q] Given the molecule CCCNC(=O)c1cn2ncnc(Nc3cc(C(=O)NC4CC4)ccc3C)c2c1C [BMS-582949] , what is its reported Cmax?
[A] 4.3

====

PROTOCOL SUMMARY: AUC in Sprague-Dawley rat at 10 mg/kg, po after 24 hrs by LC/MS/MS method
Type: ADME, organism-based
Set-up: time < 24 hr, dose 10 mg/kg, route oral
RECORDED CONDITIONS: in vivo
VALUE KIND: AUC at 24 h (µM·h)
Unit µM·h implied. Number only.

[Q] Given the molecule CCCNC(=O)c1cn2ncnc(Nc3cc(C(=O)NC4CC4)ccc3C)c2c1C [BMS-582949] , what is its reported AUC at 24 h?
[A] 23

====

TGT: Liver carboxylesterase (Sus scrofa, UniProt Q29550)
Sequence (Q29550 whole entry): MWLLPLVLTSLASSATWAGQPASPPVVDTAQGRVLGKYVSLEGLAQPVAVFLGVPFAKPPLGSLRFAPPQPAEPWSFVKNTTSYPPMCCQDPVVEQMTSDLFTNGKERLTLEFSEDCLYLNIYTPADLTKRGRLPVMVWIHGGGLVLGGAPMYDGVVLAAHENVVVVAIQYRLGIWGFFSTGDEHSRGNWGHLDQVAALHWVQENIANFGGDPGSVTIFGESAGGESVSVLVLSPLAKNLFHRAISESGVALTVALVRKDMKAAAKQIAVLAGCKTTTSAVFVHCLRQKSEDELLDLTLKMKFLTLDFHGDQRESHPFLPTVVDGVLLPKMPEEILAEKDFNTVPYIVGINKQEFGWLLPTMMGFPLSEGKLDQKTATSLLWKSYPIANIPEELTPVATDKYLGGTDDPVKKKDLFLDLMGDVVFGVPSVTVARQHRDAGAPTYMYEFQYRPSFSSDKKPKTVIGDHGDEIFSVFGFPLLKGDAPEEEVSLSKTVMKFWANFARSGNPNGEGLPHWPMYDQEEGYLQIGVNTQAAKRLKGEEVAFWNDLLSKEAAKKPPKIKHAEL
PROTOCOL SUMMARY: Stability assessed as porcine liver esterase-mediated drug degradation by measuring compound remaining level in pH 7.4 potassium phosphate buffer at 10 uM incubated for 0.5 hrs by LC/MS/MS
Type: ADME, tissue-based
RECORDED CONDITIONS: pig, read-out: Stability
VALUE KIND: remaining at 0.5 h, 10 µM
Remember to quote the unit after the number.

| SMILES DATA | remaining at 0.5 h, 10 µM |
| --- | --- |
| CCCN(C(=O)OCOC(=O)Cc1ccc(OP(=O)(O)O)cc1)C(=O)c1cn2ncnc(Nc3cc(C(=O)NC4CC4)ccc3C)c2c1C | 100% |

Query molecule follows.
[Q] Given the molecule CCCN(C(=O)OCOC(=O)Cc1ccc(O)cc1)C(=O)c1cn2ncnc(Nc3cc(C(=O)NC4CC4)ccc3C)c2c1C , what is its reported remaining at 0.5 h, 10 µM?
[A] 6.9%

====

PROTOCOL SUMMARY: Chemical stability of the compound in pH 7.4 potassium phosphate buffer at 10 uM incubated for 1 hr by LC/MS/MS method
Format: physicochemical
RECORDED CONDITIONS: read-out: Stability
VALUE KIND: remaining at 1 h, 10 µM (%)
Unit % implied. Number only.

[Q] Given the molecule CCCN(C(=O)OCOC(=O)Cc1ccc(O)cc1)C(=O)c1cn2ncnc(Nc3cc(C(=O)NC4CC4)ccc3C)c2c1C , what is its reported remaining at 1 h, 10 µM?
[A] 75

====

PROTOCOL SUMMARY: Solubility of the compound in pH 6.7 solution at room temperature
Format: physicochemical
VALUE KIND: solubility (µg/mL)
Unit µg/mL implied. Number only.

[Q] Given the compound CCCN(C(=O)OCOC(=O)Cc1ccc(OP(=O)(O)O)cc1)C(=O)c1cn2ncnc(Nc3cc(C(=O)NC4CC4)ccc3C)c2c1C , what is its reported solubility?
[A] 3030

====

TGT: Liver carboxylesterase (Sus scrofa, UniProt Q29550)
PROTOCOL SUMMARY: Stability assessed as porcine liver esterase-mediated drug degradation by measuring compound remaining level in pH 7.4 potassium phosphate buffer at 10 uM incubated for 1 hr by LC/MS/MS
Assay type: ADME, tissue-based
RECORDED CONDITIONS: pig, read-out: Stability
Parameter: remaining at 1 h, 10 µM. Scope: all listed entries.
Unit % implied. Number only.

| SMILES DATA | TGT | remaining at 1 h, 10 µM / % |
| --- | --- | --- |
| CCCN(C(=O)OCOC(=O)Cc1ccc(O)cc1)C(=O)c1cn2ncnc(Nc3cc(C(=O)NC4CC4)ccc3C)c2c1C | Liver carboxylesterase (Sus scrofa, UniProt Q29550) | 5.8 |

[Q] Given the compound CCCN(C(=O)OCOC(=O)Cc1ccc(OP(=O)(O)O)cc1)C(=O)c1cn2ncnc(Nc3cc(C(=O)NC4CC4)ccc3C)c2c1C , what is its reported remaining at 1 h, 10 µM?
[A] 100

====

PROTOCOL SUMMARY: AUC (0 to 24 hrs) in Lewis rat adjuvant arthritis model at 1 mg/kg, po bid beginning on day 11 post adjuvant challenge
Format: ADME, organism-based
Design: dose 1 mg/kg, time < 24 hr, route oral
RECORDED CONDITIONS: in vivo
VALUE KIND: AUC at 24 h (µM·h)
Unit µM·h implied. Number only.

[Q] Given the compound CCCNC(=O)c1cn2ncnc(Nc3cc(C(=O)NC4CC4)ccc3C)c2c1C , what is its reported AUC at 24 h?
[A] 6.7

====

TGT: Alkaline phosphatase, placental type (Homo sapiens, UniProt P05187)
Sequence (P05187 whole entry): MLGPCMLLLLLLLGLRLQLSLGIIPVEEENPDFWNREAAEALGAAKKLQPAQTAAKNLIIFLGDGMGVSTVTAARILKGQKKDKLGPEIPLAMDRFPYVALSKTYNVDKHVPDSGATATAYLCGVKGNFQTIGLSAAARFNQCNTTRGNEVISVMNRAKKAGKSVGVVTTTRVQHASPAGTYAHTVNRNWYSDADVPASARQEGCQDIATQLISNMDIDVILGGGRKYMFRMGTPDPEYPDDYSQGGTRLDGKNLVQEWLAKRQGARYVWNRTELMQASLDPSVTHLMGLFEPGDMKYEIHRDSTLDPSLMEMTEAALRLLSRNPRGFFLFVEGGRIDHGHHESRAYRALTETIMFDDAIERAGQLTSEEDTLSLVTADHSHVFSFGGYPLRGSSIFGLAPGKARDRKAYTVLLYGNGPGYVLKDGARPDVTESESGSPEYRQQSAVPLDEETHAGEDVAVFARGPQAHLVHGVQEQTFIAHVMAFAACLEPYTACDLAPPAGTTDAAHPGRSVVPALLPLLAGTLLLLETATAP
PROTOCOL SUMMARY: Stability assessed as human placental ALP-mediated drug degradation by measuring compound remaining level in pH 7.5 tris buffer at 10 uM incubated for 0.25 hrs by LC/MS/MS method
Assay type: ADME
RECORDED CONDITIONS: read-out: Stability
VALUE KIND: remaining at 0.25 h, 10 µM (%)
Unit % implied. Number only.

[Q] Given the molecule CCCN(C(=O)OCOC(=O)Cc1ccc(OP(=O)(O)O)cc1)C(=O)c1cn2ncnc(Nc3cc(C(=O)NC4CC4)ccc3C)c2c1C , what is its reported remaining at 0.25 h, 10 µM?
[A] 12.5

====

TGT: Alkaline phosphatase, placental type (Homo sapiens, UniProt P05187)
PROTOCOL SUMMARY: Stability assessed as human placental ALP-mediated drug degradation by measuring compound remaining level in pH 7.5 tris buffer at 10 uM incubated for 0.5 hrs by LC/MS/MS method
Format: ADME
RECORDED CONDITIONS: read-out: Stability
VALUE KIND: remaining at 0.5 h, 10 µM (%)
Unit % implied. Number only.

[Q] Given the compound CCCN(C(=O)OCOC(=O)Cc1ccc(OP(=O)(O)O)cc1)C(=O)c1cn2ncnc(Nc3cc(C(=O)NC4CC4)ccc3C)c2c1C , what is its reported remaining at 0.5 h, 10 µM?
[A] 11.1

====

TGT: Liver carboxylesterase (Sus scrofa)
PROTOCOL SUMMARY: Stability assessed as porcine liver esterase-mediated drug degradation by measuring compound remaining level in pH 7.4 potassium phosphate buffer at 10 uM incubated for 0.25 hrs by LC/MS/MS
Type: ADME, tissue-based
RECORDED CONDITIONS: pig, read-out: Stability
VALUE KIND: remaining at 0.25 h, 10 µM (%)
Unit % implied. Number only.

| SMILES DATA | remaining at 0.25 h, 10 µM, % |
| --- | --- |
| CCCN(C(=O)OCOC(=O)Cc1ccc(OP(=O)(O)O)cc1)C(=O)c1cn2ncnc(Nc3cc(C(=O)NC4CC4)ccc3C)c2c1C | 100 |

[Q] Query remaining at 0.25 h, 10 µM on Liver carboxylesterase (Sus scrofa) for CCCN(C(=O)OCOC(=O)Cc1ccc(O)cc1)C(=O)c1cn2ncnc(Nc3cc(C(=O)NC4CC4)ccc3C)c2c1C
[A] 8.2
